- target-or-system: human PAD4 (Homo sapiens, UniProt Q9UM07)
- Construct: human PAD4 (NM_012387), A2P663, was PCR amplified; His-SUMO (N, cleaved yes)
- Sequence (Q9UM07 2-663): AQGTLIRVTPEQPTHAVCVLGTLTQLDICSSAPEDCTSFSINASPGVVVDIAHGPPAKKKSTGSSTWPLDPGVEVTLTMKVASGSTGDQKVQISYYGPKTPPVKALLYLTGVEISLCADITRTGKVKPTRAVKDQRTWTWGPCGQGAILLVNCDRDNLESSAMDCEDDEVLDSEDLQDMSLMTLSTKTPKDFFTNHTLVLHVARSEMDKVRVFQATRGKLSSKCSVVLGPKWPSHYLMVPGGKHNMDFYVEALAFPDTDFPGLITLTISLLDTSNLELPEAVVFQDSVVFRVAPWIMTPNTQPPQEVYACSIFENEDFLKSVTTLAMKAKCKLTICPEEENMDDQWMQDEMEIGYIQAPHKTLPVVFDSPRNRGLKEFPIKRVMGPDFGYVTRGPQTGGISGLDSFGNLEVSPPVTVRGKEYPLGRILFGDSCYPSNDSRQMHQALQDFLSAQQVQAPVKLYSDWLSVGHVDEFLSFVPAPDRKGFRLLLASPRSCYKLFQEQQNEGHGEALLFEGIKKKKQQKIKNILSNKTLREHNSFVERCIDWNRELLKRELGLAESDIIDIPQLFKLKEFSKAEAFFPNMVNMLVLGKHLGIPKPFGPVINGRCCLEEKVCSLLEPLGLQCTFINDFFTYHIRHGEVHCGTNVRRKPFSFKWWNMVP
- test-method-notes: In vitro PAD4 BAEE biochemical assay
- experimental-context: human PAD4, BAEE substrate; 5 nM PAD4, 2 mM calcium chloride, 3 mM BAEE; geometric mean of multiple experiments
recorded-endpoint: IC50 (nM)
Note: unit nM is implicit; provide only the numeric part.

Example entries and their recorded answers appear below.
molecule | IC50, nM
COc1cc(C(=O)N2[C@H]3CC[C@@H]2[C@H](N)C3)cc2nc(-c3cc4ccc([C@@H](C)NC(=O)N5CCC(C(C)(C)O)C5)nc4n3CC3CC3)c(C)n12 (stereo partly drawn) [Example 203] | 32.4
COc1cc(C(=O)N2CCC[C@@H](N)C2)cc2nc(-c3cc4ccc([C@@H](C)NS(C)(=O)=O)nc4n3CC3CC3)c(C)n12 [Example 268] | 257
CCOC(=O)CC(C)c1ccc2cc(-c3nc4cc(C(=O)N5CCC[C@@H](N)C5)cc(OC)n4c3C)n(CC3CC3)c2n1 (stereo partly drawn) [Example 598] | 312
COc1cc(C(=O)N2[C@H]3CC[C@@H]2[C@H](N)C3)cc2nc(-c3cc4ccc([C@@H](C)NC(=O)N5CC[C@H](F)C5)nc4n3CC3CC3)c(C)n12 [Example 248] | 55.9
COc1cc(C(=O)N2[C@H]3CC[C@@H]2[C@H](N)C3)cc2nc(-c3cc4ccc(C(C)(O)C(C)C)nc4n3CC3CC3)c(C)n12 (stereo partly drawn) [Example 571] | 465

Proceeding to the next molecule to report its IC50.
Which IC50 is reported for this molecule? COc1cc(C(=O)N[C@@H]2CC[C@H](C)NC2)cc2nc(-c3cc4ccc(N(C(F)F)S(C)(=O)=O)nc4n3CC3CC3)c(C)n12 [Example 315]
350

* * *

Listed compounds paired with reported IC50
- target-or-system: human PAD4 (Homo sapiens)
- Construct: human PAD4 (NM_012387), A2P663, was PCR amplified; His-SUMO (N, cleaved yes)
- test-method-notes: In vitro PAD4 BAEE biochemical assay
- experimental-context: human PAD4, BAEE substrate; 5 nM PAD4, 2 mM calcium chloride, 3 mM BAEE; geometric mean of multiple experiments
Note: unit nM is implicit; provide only the numeric part.

Example entries and their recorded answers appear below.
compound | IC50 [nM]
COc1cc(C(=O)N2[C@H]3CC[C@@H]2[C@H](N)C3)cc2nc(-c3cc4ccc([C@@H](C)NC(=O)N5CC(F)(F)C5)nc4n3CC3CC3)c(C)n12 | 68.5
COc1cc(C(=O)N2[C@H]3CC[C@@H]2[C@H](N)C3)cc2nc(-c3cc4ccc([C@@H](C)NC(=O)[C@@H](C)OC)nc4n3CC3CC3)c(C)n12 | 64.5
COc1cc(C(=O)N2C[C@H]3C[C@H](O)[C@@H]2[C@@H]3N)cc2nc(-c3cc4ccc([C@@H](C)NC(=O)C(C)(C)C)nc4n3CC3CC3)c(C)n12 | 497

For the record "COc1cc(C(=O)N2[C@H]3CC[C@@H]2[C@H](N)C3)cc2nc(-c3cc4ccc([C@@H](C)NC(=O)C56CC(C5)C6)nc4n3CC3CC3)c(C)n12" , what value of IC50 is listed for human PAD4 (Homo sapiens)?
53.2

For the record "COc1cc(C(=O)N2[C@H]3CC[C@@H]2[C@H](N)C3)cc2nc(-c3cc4ccc([C@@H](C)NC(=O)NCc5ncccn5)nc4n3CC3CC3)c(C)n12" , what value of IC50 is listed for human PAD4 (Homo sapiens)?
31.5

For the record COc1cc(C(=O)N2CCC3(CCCCN3)C2)cc2nc(-c3cc4ccc([C@@H](C)NC(=O)C56CC(F)(C5)C6)nc4n3CC3CC3)c(C)n12 (some centres unmarked) , what value of IC50 is listed for human PAD4 (Homo sapiens)?
23400

For the record COc1cc(C(=O)N2[C@H]3CC[C@@H]2[C@H](N)[C@H](O)C3)cc2nc(-c3cc4ccc(N(C(F)F)S(C)(=O)=O)nc4n3CC3CC3)c(C)n12 [Example 416] , what value of IC50 is listed for human PAD4 (Homo sapiens)?
337

For the record "CCc1ccc2cc(-c3nc4cc(C(=O)N5CC6(N)CCC5CC6)cc(OC)n4c3C)n(CC3CC3)c2n1" , what value of IC50 is listed for human PAD4 (Homo sapiens)?
1900

* * *

- target-or-system: human PAD4 (Homo sapiens)
- Construct: human PAD4 (NM_012387), A2P663, was PCR amplified; His-SUMO (N, cleaved yes); made in house; host or cells: E. coli BL21(DE3)
- test-method-notes: In vitro PAD4 BAEE biochemical assay
- experimental-context: human PAD4, BAEE substrate; 5 nM PAD4, 2 mM calcium chloride, 3 mM BAEE; geometric mean of multiple experiments
Listed compounds paired with reported pIC50
Reminder that pIC50 means the negative base-10 logarithm of the concentration expressed in mol/L.

Example entries and their recorded answers appear below.
compound | result
COc1cc(C(=O)N2[C@H]3CC[C@@H]2[C@H](N)C3)cc2nc(-c3cc4ccc(C5=CC(=O)N(C)CC5)nc4n3CC3CC3)c(C)n12 | 6.66
COc1cc(C(=O)N2CCC3(CCCNC3)C2)cc2nc(-c3cc4ccc([C@@H](C)NC(=O)C56CC(F)(C5)C6)nc4n3CC3CC3)c(C)n12 (some centres unmarked) | 4.72
COc1cc(C(=O)N2CCC[C@@H](N)C2)cc2nc(-c3cc4ccc(N(C(F)F)S(C)(=O)=O)nc4n3CC3CC3)c(C)n12 | 7.02
COc1cc(C(=O)N2[C@H]3CC[C@@H]2[C@H](N)C3)cc2nc(-c3cc4ccc([C@@H](C)NC(=O)N5C[C@H]6OCC[C@H]65)nc4n3CC3CC3)c(C)n12 | 7.53
COc1cc(C(=O)N2CCC[C@@H](N)C2)cc2nc(-c3cc4ccc(C(C)n5cc(N)cn5)nc4n3CC3CC3)c(C)n12 (some centres unmarked) | 6.15

For the record "COc1cc(C(=O)N2C[C@H]3C[C@H](O)[C@@H]2[C@@H]3N)cc2nc(-c3cc4ccc(N(C(F)F)S(C)(=O)=O)nc4n3CC3CC3)c(C)n12" , what value of pIC50 is listed for human PAD4 (Homo sapiens)?
6.47

For the record "COc1cc(C(=O)N2[C@H]3CC[C@@H]2[C@H](N)C3)cc2nc(-c3cc4ccc([C@@H](C)NC(=O)c5cccnc5)nc4n3CC3CC3)c(C)n12" , what value of pIC50 is listed for human PAD4 (Homo sapiens)?
7.52

For the record "COc1cc(C(=O)N2[C@H]3CC[C@@H]2[C@H](N)C3)cc2nc(-c3cc4ccc([C@@H](C)NC(=O)[C@H]5[C@@H]6CC(F)(F)C[C@@H]65)nc4n3CC3CC3)c(C)n12" , what value of pIC50 is listed for human PAD4 (Homo sapiens)?
6.84

For the record "COc1cc(C(=O)N2CCC[C@@H](N)[C@H]2C)cc2nc(-c3cc4ccc(N(C)S(C)(=O)=O)nc4n3CC3CC3)c(C)n12" , what value of pIC50 is listed for human PAD4 (Homo sapiens)?
6.78

For the record "COc1cc(C(=O)N2CCC3(CNC3)C2)cc2nc(-c3cc4ccc(N(C(F)F)S(C)(=O)=O)nc4n3CC3CC3)c(C)n12" , what value of pIC50 is listed for human PAD4 (Homo sapiens)?
4.61

For the record "COc1cc(C(=O)N2[C@H]3CC[C@@H]2[C@H](N)C3)cc2nc(-c3cc4ccc([C@H](NC(=O)C5(C#N)CC5)C(F)(F)F)nc4n3CC3CC3)c(C)n12" , what value of pIC50 is listed for human PAD4 (Homo sapiens)?
6.15

For the record "CCc1ccc2cc(-c3nc4cc(C(=O)N5[C@H]6CC[C@@H]5[C@H](N)C6)cc(OC)n4c3C)n(CCS(C)(=O)=O)c2n1" , what value of pIC50 is listed for human PAD4 (Homo sapiens)?
6.17

For the record COc1cc(C(=O)N2[C@H]3CC[C@@H]2[C@H](N)C3)cc2nc(-c3cc4ccc(N5C(C)CCCCS5(=O)=O)nc4n3CC3CC3)c(C)n12 (some centres unmarked) , what value of pIC50 is listed for human PAD4 (Homo sapiens)?
7.09

* * *

Listed molecules paired with reported pIC50
- target-or-system: human PAD4 (Homo sapiens, UniProt Q9UM07)
- Construct: human PAD4 (NM_012387), A2P663, was PCR amplified; His-SUMO (N, cleaved yes)
- test-method-notes: In vitro PAD4 BAEE biochemical assay
- experimental-context: human PAD4, BAEE substrate; 5 nM PAD4, 2 mM calcium chloride, 3 mM BAEE; geometric mean of multiple experiments
Reminder that pIC50 means the negative base-10 logarithm of the concentration expressed in mol/L.

molecule | target-or-system | pIC50
C=CCN[C@@H]1CC[C@@H]2CC[C@H]1N2C(=O)c1cc(OC)n2c(C)c(-c3cc4ccc(N(C(F)F)S(C)(=O)=O)nc4n3CC3CC3)nc2c1 [Example 390] | human PAD4 (Homo sapiens, UniProt Q9UM07) | 5.42
COc1cc(C(=O)N2[C@H]3CC[C@@H]2[C@H](N)C3)cc2nc(-c3cc4ccc([C@@H](C)N5CCOCC5)nc4n3CC3CC3)c(C)n12 [Example 277] | human PAD4 (Homo sapiens, UniProt Q9UM07) | 6.72

Proceeding to the next molecule to report its pIC50.
Which pIC50 is reported for this molecule? Cc1c(-c2cc3ccc(N(C(F)F)S(C)(=O)=O)nc3n2CC2CC2)nc2cc(C(=O)N3[C@@H]4CC[C@@H](N)[C@H]3CC4)ccn12 [Example 401]
6.87
